system.name: Recombinant STAT6 protein (STAT6(W123-T658)) (Homo sapiens)
Construct: Recombinant STAT6 protein (STAT6(W123-T658))
Sequence (P42226 123-658): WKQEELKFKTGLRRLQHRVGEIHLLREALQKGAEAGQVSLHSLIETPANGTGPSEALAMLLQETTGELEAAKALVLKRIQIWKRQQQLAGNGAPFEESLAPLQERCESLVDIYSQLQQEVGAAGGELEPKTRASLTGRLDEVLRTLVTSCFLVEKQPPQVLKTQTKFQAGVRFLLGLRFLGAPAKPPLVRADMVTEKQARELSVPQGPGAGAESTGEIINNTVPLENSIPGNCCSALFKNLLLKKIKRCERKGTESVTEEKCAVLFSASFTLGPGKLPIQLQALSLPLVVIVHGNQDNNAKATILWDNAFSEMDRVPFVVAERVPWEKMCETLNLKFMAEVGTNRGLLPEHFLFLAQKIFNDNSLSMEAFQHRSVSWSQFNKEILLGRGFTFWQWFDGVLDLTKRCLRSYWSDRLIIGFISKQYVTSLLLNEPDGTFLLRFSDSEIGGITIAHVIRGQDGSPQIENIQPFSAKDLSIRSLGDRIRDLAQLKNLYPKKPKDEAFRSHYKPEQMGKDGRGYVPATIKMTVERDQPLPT
protocol.details: STAT6 Fluorescence Polarization (FP) Assay
condition.label: STAT6(W123-T658) 250 nM, probe 5-FAM-ApYKPFQDLI-NH2 2 nM, 45-minute incubation
pIC50: −log10 of the molar value.
Reported pIC50 values are given for each entry in this list.
reported.metric: pIC50

• CC(=O)N1CC[C@H]2CC[C@@H](C(=O)Nc3ccc4nnccc4c3)N2C(=O)[C@@H](NC(=O)c2ccc3ccc(C(F)(F)P(=O)(O)O)cc3c2)C1 = 5.52 to 6.52
• CC(=O)N1CC[C@H]2CC[C@@H](C(=O)N(C)c3ccc(C(C)(C)C)cc3)N2C(=O)[C@@H](NC(=O)c2cc3cc(C(F)(F)P(=O)(O)O)ccc3s2)C1 = 5.52 to 6.52
• CC(=O)N1CC[C@H]2CC[C@@H](C(=O)N(C)c3ccccc3)N2C(=O)[C@@H](NC(=O)c2ccc3cc(P(=O)(O)O)ccc3c2)C1 = < 4.52
• CC(=O)N1CC[C@H]2CC[C@@H](C(=O)N3C[C@H](c4ccccc4)[C@@H](C#N)C3)N2C(=O)[C@@H](NC(=O)c2ccc3ccc(C(F)(F)P(=O)(O)O)cc3c2)C1 (relative stereo) = ≥ 6.52
• Cc1ccc2onc(C(=O)N3CC[C@H]4CC[C@@H](C(=O)N5CCOCC5)N4C(=O)[C@@H](NC(=O)c4ccc5ccc(CP(=O)(O)O)nc5c4)C3)c2c1 = 4.52 to 5.52
